src = the supplement of paper PMC4466140

# SYSTEM UNDER TEST: AgCyk3
# METHOD: SPOT peptide array binding signal intensity (averaged, normalized) (arbitrary units (background-subtracted, floor 0; scale differs between SH3 domains)); higher = stronger binding of the SH3 domain to the peptide
Decide using SPOT peptide array binding signal intensity: a value greater than or equal to 2 is label 1, a smaller one is label 0.

Example cases with answers are listed next.
>>> assigned_category("IPSRPAPKPPSSASA")
"label 0"
>>> assigned_category("SHRLWLYAAPKRPKT")
"label 0"
>>> assigned_category("LLIRWLILMPLVGSR")
"label 1"
>>> assigned_category("MFLISPPASPPPEFD")
"label 0"
>>> assigned_category("FFRRSELYLPNSSKA")
"label 0"
>>> assigned_category("TSIEIPKRSPLRFTS")
"label 0"

Data request: State whether the measured SPOT peptide array binding signal intensity reaches 2, counting equality as reaching it, for VQQDSLPKLPFRSWG
Data returned: label 1
